What logD was measured for each of the following?
# experiment-summary: physchem
# experimental-context: octan-1-ol/water, pH 7.4, LogD7.4

Solved cases (4 shown):
- compound: "O=c1[nH]c2cc(Cl)c(Cl)c([N+](=O)[O-])c2[nH]c1=O"
  recorded-metric: "logD"
  val: 0.21
- compound: "CC(C)c1cc(C(=O)N2Cc3ccc(CN4CCN(C)CC4)cc3C2)c(O)cc1O"
  recorded-metric: "logD"
  val: 2.5
- compound: "NC(=O)Nc1sc(-c2ccc(CN3CCCCC3)cc2)cc1C(N)=O"
  recorded-metric: "logD"
  val: 1.75
- compound: "O=C(NCC12CC3CC(CC(C3)C1)C2)c1ccccc1"
  recorded-metric: "logD"
  val: 4.21

Parameter requested: logD. Apply to each item below.
1. Cc1ccc(S(=O)(=O)Nc2c(C(=O)N[C@H](C)C(C)(C)C)c(C)nn2-c2ccccc2)cc1
2. CN1CCN(CCCOc2ccc(-c3cc(-c4ccc(F)cc4)no3)cc2)CC1

Result block:
1.2
3.81

---

# experiment-summary: physchem
Where pKa equals or exceeds 8, the correct label is y; where it does not, the label is n.

Illustrative cases are given below, each with its answer.
- molecule: "CCn1cc(C(=O)O)c(=O)c2cc(F)c(N3CCNCC3)nc21 [ENOXACIN]"
  class-name: "y"
- molecule: "NC1=Nc2cccc3cccc(c23)N1"
  class-name: "n"
- molecule: "C[C@H](CO)Nc1nc(SCc2cccc(F)c2F)nc2nc(N)cnc12"
  class-name: "n"
- molecule: "COc1ccnc(NC2CCN(C(=O)c3ccc(C#N)cc3)CC2)c1"
  class-name: "n"

Query block: Check the entry CCn1cc(C(=O)O)c(=O)c2cc(F)c(N3CCNC(C)C3)c(F)c21 (stereo not drawn) [LOMEFLOXACIN] : does pKa equal or exceed 8?
Result block: y

Query block: Answer whether pKa of NC1=NC(c2cccs2)Nc2cccc(F)c21 (stereo not drawn) is greater than or equal to 8.
Result block: y

Query block: Hi team, for COc1ccc(C2(c3cccc(-c4cncnc4)c3)N=C(C)C(N)=N2)cc1C (stereo not drawn) , is the recorded pKa at or above 8?
Result block: n

---

# experiment-summary: physchem
# experimental-context: octan-1-ol/water, pH 7.4, LogD7.4
I'd be grateful if you could share measured logD for these entries.
Give bare numbers.

Recorded logD, per entry:
- compound: "COc1ccc(NC(=O)CSc2nnc(C)n2-c2ccc(C)cc2)cc1"
  logD: 2.94
- compound: "O=S(=O)(c1ccccc1-c1ccc(CNC2CCOCC2)cc1)N1CCCC1"
  logD: 1.4
- compound: "O=c1[nH]n(C(c2ccccn2)C2CC2)c(=O)c2c(O)c3ccc(Cl)cc3nc12 (centres undefined)"
  logD: 1
- compound: "NCC(O)(c1ccccc1)c1ccccc1"
  logD: 0.9
- compound: "CC(C)COc1cc(-c2cccc3c(=O)cc(N4CCOCC4)oc23)ccc1NC(=O)CN1CCOCC1"
  logD: 3.8

Each of the following entries comes with a recorded value; kindly state logD for each.
1. COc1ccc(Oc2cccc(CN3CCCC(n4cc(C)c(=O)[nH]c4=O)C3)c2)cc1 (centres undefined)
2. CCN(CC)CCOC(=O)C1(C2CCCCC2)CCCCC1

Result block:
[3.17, 3.72]

---

# experiment-summary: in vitro
# experimental-context: mouse, plasma
Answer each item with its documented fraction unbound at 5 h.
Answers are plain numbers.

Examples from the recorded data:
- smiles-code: "CC[C@H](Nc1ncnc2[nH]cnc12)c1nc2cccc(F)c2c(=O)n1-c1ccccc1"
  val: 0.19
- smiles-code: "CCOc1cc(CN2CCC(NC(=O)c3cncc(C)c3)CC2)cc(OCC)c1-c1ccc(F)cc1"
  val: 0.0139
- smiles-code: "CC(C)C[C@H](CO)Nc1nc(S[C@@H](C)c2ccccc2F)nc2nc(N)sc12"
  val: 0.002
- smiles-code: "O=c1cc(OCc2ccccc2)ccn1-c1ccc2c(cnn2CCN2CCCC2)c1"
  val: 0.137

Each of the following entries comes with a recorded value; kindly state fraction unbound at 5 h for each.
1. Cc1cnc(C(=O)c2ncnc3[nH]ccc23)c(NS(=O)(=O)c2ccc(Cl)c(C(F)(F)F)c2)c1
2. COc1ccc2cc(S(=O)(=O)N[C@H](CC(=O)N[C@H](Cc3ccc(CN4[C@H](C)CCC[C@@H]4C)cc3)C(=O)N(C)C(C)C)c3ccc4c(c3)OCO4)ccc2c1

Result block:
1. 0.0069
2. 0.04

---

# experiment-summary: in vitro
# experimental-context: hepatocytes
recorded-metric: hepatocyte CLint (µL/min/1e6 cells)
One number for each entry, in µL/min/1e6 cells.

Below, each entry is followed by its recorded hepatocyte CLint result.
- compound: "C#Cc1cccc(Nc2ncnc3cc4c(cc23)OCCOCCOCCO4)c1 [ICOTINIB]"
  hepatocyte CLint, µL/min/1e6 cells: 21.9
- compound: "O=C(Cc1ccc(Cl)c(C(F)(F)F)c1)Nc1cccc2c(=O)n(CCO)ccc12"
  hepatocyte CLint, µL/min/1e6 cells: 11
- compound: "CN[C@@H](C)C(=O)N[C@H]1CN(C(=O)CC(C)C)CC[C@H]2CC[C@@H](C(=O)NC(c3ccccc3)c3ccccc3)N2C1=O [XEVINAPANT]"
  hepatocyte CLint, µL/min/1e6 cells: 17
- compound: "C[C@H](CO)n1ccc2c(NC(=O)Cc3ccc(Cl)c(C(F)(F)F)c3)cccc2c1=O"
  hepatocyte CLint, µL/min/1e6 cells: 29

Look at each compound and report its hepatocyte CLint.
1. COC(=O)C1=C(C)NC2=C(C(=O)CC(C)(C)C2)C1c1ccc(-c2ccc(C(F)(F)F)cc2)cc1 (configuration not stated)
2. C[C@H](c1nc2ncccc2c(=O)n1-c1ccc(Cl)cc1)N(CC1CCS(=O)(=O)CC1)C(=O)Cc1ccc(C(F)(F)F)c(F)c1

Result block:
1: 12.3; 2: 7.08

I have 3 compounds here; please give me hepatocyte CLint for each one.
1. Nc1cc(C(=O)Nc2cccc(-c3nnn[nH]3)c2)cc(C(F)(F)F)c1
2. COc1ccc2c(Oc3ccc(CC(=O)Nc4cn(C)nc4C)c(OC)c3)ccnc2c1
3. Cc1cn([C@H]2CCCN(S(=O)(=O)c3ccc(O)c(Oc4cccc(Br)c4)c3)C2)c(=O)[nH]c1=O

Result block:
1. 23.4
2. 23.4
3. 38

---

# experiment-summary: in vitro
# experimental-context: human, plasma, PPB
recorded-metric: fraction unbound at 5 h
One number for each entry.

Example results:
- compound: "CCCCNc1cc(C(=O)O)cc(S(N)(=O)=O)c1Oc1ccccc1 [BUMETANIDE]"
  val: 0.0156
- compound: "O=c1cc(N2CCOCC2)nc(NCc2c(Cl)cccc2Cl)[nH]1"
  val: 0.04
- compound: "CC(C)Oc1cc2ncc(C(N)=O)c(Nc3cccc(Cl)c3Cl)c2cc1N1CCN(C)CC1"
  val: 0.0139
- compound: "O=C(O)CCc1ccc(OCc2cc(Cl)ccc2-c2ccccc2)cc1"
  val: 0.002
- compound: "OC[C@H](Nc1ncc(Cl)c(Nc2cc(C3CC3)n[nH]2)n1)c1ccc(F)cc1"
  val: 0.0437
- compound: "CC(C)Cn1c(=O)n(C)c(=O)c2c(C(=O)N3CC[C@@H](O)C3)c(Cc3ccnc4ccc(F)cc34)sc21"
  val: 0.46
- compound: "Nc1nc(Nc2ccc(S(N)(=O)=O)cc2)nn1C(=O)c1c(F)cccc1F"
  val: 0.19
- compound: "COc1ccc2ncc(C#N)c(CCN3CCC(NCc4cc5c(cn4)OCS5)CC3)c2c1"
  val: 0.089
- compound: "CN(Cc1cnc2nc(N)nc(N)c2n1)c1ccc(C(=O)N[C@@H](CCC(=O)O)C(=O)O)cc1 [METHOTREXATE]"
  val: 0.535
- compound: "O=C(Cn1c(Cl)cnc(NCC(F)(F)c2ccccn2)c1=O)NCc1ncccc1F"
  val: 0.28

I need fraction unbound at 5 h for every entry listed below, if you could help.
1. Cc1ccc(CCNC(=O)c2ccc3sc(CO)nc3c2)cc1
2. CN[C@@H](C)C(=O)N[C@H](C(=O)N[C@H]1CCCCN(CCc2ccccc2)C1)C1CCCCC1
3. CN1CCCC1CCNC(=O)c1ccc(Nc2ncc3cc(-c4ccncc4)ccc3n2)cc1 (stereo not given)
4. CC(C)(C)Oc1ccc(C(=O)Nc2ccc3sc(CO)nc3c2)cc1
5. O=c1cc(Cn2c(C3CCC3)nc3nccnc32)c2ccc(F)c(F)c2[nH]1
6. C[C@@H]1CN(c2ccc3c(n2)NC(=O)CO3)[C@H](c2ccccc2)CO1
7. CC(C)(C)OC(=O)NC[C@H]1CC[C@H](CNC(=O)c2cc(-c3ccccc3)nc3ccccc23)CC1

Result block:
1. 0.0293
2. 0.262
3. 0.0081
4. 0.051
5. 0.201
6. 0.0633
7. 0.0008

Fill in fraction unbound at 5 h for each of the 2 compounds listed.
1. N#CN=C(N)c1sc(Nc2ccccc2)nc1N
2. CC(C)(Oc1ccc(Cl)cc1)C(=O)N1CCN(c2ccccn2)CC1

Result block:
0.103
0.0077

Batch request: fraction unbound at 5 h per item, same order as input.
1. Nc1ncnc2c1c(COc1cccc(Cl)c1)nn2C1CCOCC1
2. c1ccc([C@H]([C@@H](c2ccccc2)N2CCCC2)N2CCCC2)cc1
3. O=C1CN(C(=O)c2ccccc2)C(c2ccccc2)c2cc(Cl)ccc2N1 (stereo not given)
4. Cc1oc(-c2ccccc2)cc1C(=O)Nc1cccc(C(=O)O)c1
5. CC(C)[C@H](C(=O)Nc1nccs1)c1ccc(Cl)cc1
6. COc1ccc(-c2nc3ccc(C4=NNC(=O)CC4C)cc3[nH]2)cc1 (stereo not given)

Result block:
0.0477
0.17
0.0606
0.002
0.0074
0.11
